All figures here come from patent US20260265403A1.

Target Desc: T1, human CD24 on cells (human, UniProt P25063 27-59)
T1 chain (looked up): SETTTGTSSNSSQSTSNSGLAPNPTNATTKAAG
Assay Procedure: cell-based or functional assay
Assay Endpoint: EC50 of Phagocytosis assay, IgG4, Kappa; NALM6 (µg/mL)

Binder	Units Symbol	Val
90-D11B6, IgG4, Kappa (antibody, V domains shown) VH: EVQLQQSGPELVKPGASVRISCKASGYSFTGYYMNWVKQSPEKNLEWIGEINPITGGSTYNQKFVAKATLTVDRSSSTAYMQLKSLTSEDSAVYYCTRRDYDTSLDYWGQGTTLTVSS VL: DVQITQSPSYLAASPGETITINCRASKSISKYLAWYQEKPGKTIKLLIYAGSTLQSGIPSRFSGSGYGTDFTLTISSLEPEDFAMYYCQQHNEYPLTFGAGTKLELK	µg/mL	1.31
45-H1E4, IgG4, Kappa (antibody, V domains shown) VH: QIQLVQSGPELKKPGETVKISCKASGYTFTTYGMSWMKQAPGKGLKWMGWINTYSGVPAYADDFKGRFAFSLDTSASTAYLQINNLKNEDTATYFCARSGYPWSPHSYSTDYWGQGISVTVSS VL: DVLLTQTPLSLPVSLGDQASISCKSSQSIVHSNGNTYLEWYLQKPGQSPKRLIYKVSNRFSGVPDRFSGSGSGTDFTLKISRVEAEDLGVYYCFQGSHVPWTFGGGTKLEIK	µg/mL	5.36
67-H2E7, IgG4, Kappa (antibody, V domains shown) VH: EVQLQQSGPELVKPGASVKISCKASGYEFTGYHMNWVKQSPEKSLEWIGEINPITSDKTFNQKFKAKATLTVDRSSTTAYMHLKSLTSEDSAVYYCARRDYDTSLDYWGQGTTLTVSS VL: DVQITQSPSYLAASPGETITIYCRASKSISKYLAWYQEKPEKTNRLLIYAGSTLQSGIPSRFRGSGSGKDFTLTVSGLEPEDFAMYYCQQHNEYPLTFGAGTKLDLK	µg/mL	0.68
63-B10B9, IgG4, Kappa (antibody, V domains shown) VH: EVQLQQSGPELVKPGASVKISCKASGYSFTGYYMNWVKQSPEKSLEWIGEINPITGGTTYNQKFRAKATLTVDRSSSTAYMQLKSLTSEDSAVYYCTKRDYDTSLDYWGQGTTLIVSS VL: DVQITQSPSYLAAFPGETITINCRASKSIKKYLAWYQEKPGKTNNLLIYSGSTLQSGIPSRFSGSGTGTDFTLTISSLEPEDFAMYYCQQHNEYPLTFGAGTKLELK	µg/mL	6.16
74-H4C6 (4451), IgG4, Kappa (antibody, V domains shown) VH: EVQLQQSGPELVKPGASVKISCKASGYDFTGYHMNWVKQSPEKSLEWIGEINPITSDKTFNQKFKSKATLTVDRSSSTAYMYLKSLTSEDSAVYYCARRDYGTSLDYWGQGTTLTVSS VL: DVQITQSPSYLAASPGETITIYCRASKSISKYLAWYQEKPEKTNRLLIYAGSTLHSGIPSRFRGSGSGKDFTLTVSGLEPEDFAMYYCQQHNEYPITFGAGTKLELK	µg/mL	0.32
89-E8C12 (4428), IgG4, Kappa (antibody, V domains shown) VH: EVQLQQSGPELVKPGASVKISCKASGYDFTGYYMNWMKQSPEKSLEWIGEINPITSHNTFNQKFKAKATLTVDRSSSTAYMHLKSLTSEDSAVYYCARRDYGTSLDYWGQGTTLTVSS VL: DVQITQSPSYLAASPGETITIYCRASKSISKYLAWYQEKPEKTIRLLIYAGSTLQSGIPSRFRGSGSGTDFTLTVSGLEPEDFAMYYCQQHNEYPLTFGAGTKLELK	µg/mL	0.57
